The origin of these recorded values is patent US5658916A.

- Target or system: α1-adrenergic receptors
- Test name: Displacement of 3H-prazosin binding to α1-adrenergic receptors (rat brain cortex)
- Condition context: read-out: Displacement (Ki, nM) of the binding of 3H-prazosin to α1-adrenergic receptors, 3H-prazosin 0.5 nM, 37° C., 15 min, pH 7.7
Measured property: Ki (nM)
Could you give me the number in nM? Just the number is fine.

Inquiry: # Ki lookup, item Cc1nc2n(c(=O)c1CCN1CC=C(c3noc4cc(F)ccc34)CC1)CCCC2
Reply text: 14.6

Inquiry: Any idea what its Ki is? The compound is Cc1nc2sccn2c(=O)c1CCN1CCC(=C(c2ccc(F)cc2)c2ccc(F)cc2)CC1 [Ritanserine, reference compound]
Reply text: 29.6

----------
- Target or system: D2 receptors (Rattus norvegicus, UniProt P61169)
- Construct: Striate tissue of rat brain was prepared; from tissue; host or cells: rat brain striatum, crude membrane homogenate
- Sequence (P61169 whole entry): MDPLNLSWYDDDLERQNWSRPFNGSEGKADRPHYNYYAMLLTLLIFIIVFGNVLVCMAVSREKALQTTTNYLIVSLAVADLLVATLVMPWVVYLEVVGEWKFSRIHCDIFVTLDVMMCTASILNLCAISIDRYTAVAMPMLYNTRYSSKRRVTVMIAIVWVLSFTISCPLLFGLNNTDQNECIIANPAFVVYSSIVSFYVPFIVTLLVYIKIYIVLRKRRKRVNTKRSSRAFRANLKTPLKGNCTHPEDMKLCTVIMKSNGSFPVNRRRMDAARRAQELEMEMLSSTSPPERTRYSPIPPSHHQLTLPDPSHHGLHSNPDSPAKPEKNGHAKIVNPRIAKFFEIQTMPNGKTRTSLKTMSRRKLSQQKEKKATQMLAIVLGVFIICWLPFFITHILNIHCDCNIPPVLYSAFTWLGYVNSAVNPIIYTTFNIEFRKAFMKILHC
- Test name: Displacement of 3H-spiroperidol binding to D2 receptors (striate tissue of rat brain)
Measured property: Ki

Inquiry: Lab request: please report Ki under test system D2 receptors (Rattus norvegicus, UniProt P61169) for Cc1nc2n(c(=O)c1CCN1CC=C(c3noc4cc(F)ccc34)CC1)CCCC2
Reply text: 22 nM

----------
- Target or system: D2 receptors (Rattus norvegicus, UniProt P61169)
- Construct: Striate tissue of rat brain was prepared; from tissue; host or cells: rat brain striatum, crude membrane homogenate
- Test name: Displacement of 3H-spiroperidol binding to D2 receptors (striate tissue of rat brain)
- Condition context: striate rat tissue; 3H-spiroperidol 0.2 nM; 37° C., 15 min; pH 7.7
Measured property: Ki (nM)
The figure you give is taken to be in nM; do not add the unit.

Inquiry: Record request: Ki value, item Cc1nc2sccn2c(=O)c1CCN1CCC(=C(c2ccc(F)cc2)c2ccc(F)cc2)CC1 [Ritanserine, reference compound]
Reply text: 47.7

----------
- Target or system: 5HT2 receptors (Rattus norvegicus, UniProt P14842)
- Construct: Front cortex of rat brain was prepared; from tissue; host or cells: rat brain frontal cortex, crude membrane homogenate
- Sequence (P14842 whole entry): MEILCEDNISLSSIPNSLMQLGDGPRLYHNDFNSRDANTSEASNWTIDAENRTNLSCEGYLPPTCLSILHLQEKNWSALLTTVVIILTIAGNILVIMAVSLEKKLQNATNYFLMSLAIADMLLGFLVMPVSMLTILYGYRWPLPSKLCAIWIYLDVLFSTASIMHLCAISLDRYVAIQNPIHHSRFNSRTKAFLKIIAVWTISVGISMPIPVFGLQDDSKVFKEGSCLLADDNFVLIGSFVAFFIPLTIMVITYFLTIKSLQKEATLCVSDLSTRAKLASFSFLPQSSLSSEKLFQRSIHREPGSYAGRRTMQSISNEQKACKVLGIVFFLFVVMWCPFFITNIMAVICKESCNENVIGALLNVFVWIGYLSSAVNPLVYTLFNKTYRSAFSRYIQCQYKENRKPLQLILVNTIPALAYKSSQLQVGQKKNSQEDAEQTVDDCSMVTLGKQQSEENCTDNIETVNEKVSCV
- Test name: Displacement of 3H-ketanserine binding to 5HT2 receptors (front cortex of rat brain)
- Condition context: 3H-ketanserine 0.5 nM, 37° C., 15 min
- Experimental: These were carried out as described by Leysen et al (1978), with certain modifications. […] The incubation (37° C., 15 min) was terminated by rapid filtering through Whatman GF/C filters.
Measured property: pKi
Please report pKi as the negative decimal logarithm of the molar concentration, giving only the number.

Inquiry: Which measured pKi belongs to Cc1nc2n(c(=O)c1CCN1CC=C(c3noc4cc(F)ccc34)CC1)CCCC2 , tested on 5HT2 receptors (Rattus norvegicus, UniProt P14842)?
Reply text: 8.77
